Parameter: pEC50. Scope: all listed entries.
biological target: CFTR (F508del/MF-HBE cells) (Homo sapiens, UniProt P13569, DEL508-508); construct: human bronchial epithelial (HBE) cells derived from CF subjects heterozygous for F508del and a minimal function CFTR mutation (F508del/MF-HBE); endogenous in cells; assay: Ussing chamber assay of CFTR-mediated short-circuit currents (potentiator identification); conditions: CFTR-mediated Isc, 18-24 h incubation at 37° C. with 10 μM (14S)-8-[3-(2-{dispiro[2.0.2.1]heptan-7-yl}ethoxy)-1H-pyrazol-1-yl]-... corrector, 20% human serum
Sequence (P13569 with tags, fused parts or gaps DEL508-508): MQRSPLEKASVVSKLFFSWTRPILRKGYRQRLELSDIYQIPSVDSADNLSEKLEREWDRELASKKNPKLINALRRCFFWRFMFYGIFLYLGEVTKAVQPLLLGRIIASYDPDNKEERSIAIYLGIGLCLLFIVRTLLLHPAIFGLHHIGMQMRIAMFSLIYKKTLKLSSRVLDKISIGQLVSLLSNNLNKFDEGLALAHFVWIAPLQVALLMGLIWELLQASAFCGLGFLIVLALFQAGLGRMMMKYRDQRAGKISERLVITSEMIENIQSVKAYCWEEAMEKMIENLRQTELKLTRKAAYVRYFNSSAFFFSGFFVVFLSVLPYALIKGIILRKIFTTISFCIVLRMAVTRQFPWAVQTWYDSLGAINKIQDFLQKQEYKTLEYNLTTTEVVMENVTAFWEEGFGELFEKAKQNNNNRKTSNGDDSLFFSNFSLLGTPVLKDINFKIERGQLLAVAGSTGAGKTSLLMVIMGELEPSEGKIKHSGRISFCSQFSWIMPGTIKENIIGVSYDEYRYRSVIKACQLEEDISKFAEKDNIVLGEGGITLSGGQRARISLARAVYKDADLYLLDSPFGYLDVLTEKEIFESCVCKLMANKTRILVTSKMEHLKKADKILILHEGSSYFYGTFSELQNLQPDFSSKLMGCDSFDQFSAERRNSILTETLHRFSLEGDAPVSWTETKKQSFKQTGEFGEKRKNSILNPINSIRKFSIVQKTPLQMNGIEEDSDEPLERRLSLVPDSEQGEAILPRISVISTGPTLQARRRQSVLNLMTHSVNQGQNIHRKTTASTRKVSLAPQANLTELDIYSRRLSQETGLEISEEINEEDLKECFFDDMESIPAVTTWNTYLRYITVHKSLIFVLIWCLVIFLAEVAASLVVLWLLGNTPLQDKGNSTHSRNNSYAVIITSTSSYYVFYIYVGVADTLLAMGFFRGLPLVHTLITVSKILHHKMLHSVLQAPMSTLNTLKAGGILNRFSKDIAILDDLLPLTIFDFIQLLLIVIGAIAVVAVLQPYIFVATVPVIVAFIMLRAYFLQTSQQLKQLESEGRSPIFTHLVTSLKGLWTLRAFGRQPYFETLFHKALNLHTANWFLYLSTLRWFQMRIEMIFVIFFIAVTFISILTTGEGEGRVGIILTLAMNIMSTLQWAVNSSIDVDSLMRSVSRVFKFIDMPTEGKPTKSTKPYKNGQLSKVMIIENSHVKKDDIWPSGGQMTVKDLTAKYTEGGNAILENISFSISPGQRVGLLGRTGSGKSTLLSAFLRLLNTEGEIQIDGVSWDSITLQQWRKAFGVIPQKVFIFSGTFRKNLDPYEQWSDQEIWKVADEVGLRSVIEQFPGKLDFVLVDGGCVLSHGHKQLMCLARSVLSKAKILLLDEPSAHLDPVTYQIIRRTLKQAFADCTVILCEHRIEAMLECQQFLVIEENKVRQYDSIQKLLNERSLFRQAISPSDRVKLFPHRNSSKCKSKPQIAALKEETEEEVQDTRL
pEC50: −log10 of the molar value.
Test Readout: pEC50

| Molecule | Experimental Result |
| --- | --- |
| Nc1cc(C(F)(F)F)c2nc1-c1nnc(o1)C(O)(C(F)(F)F)CCCCc1cccc(c1)O2 (single isomer, unassigned) [Compound 28] | < 6.00 |
| Nc1cc(C(F)(F)F)c2nc1-c1nnc(o1)C(O)(C(F)(F)F)CCCCc1cc(F)cc(c1)O2 (single isomer, unassigned) [Compound 32] | < 6.00 |
| OC1(C(F)(F)F)CCCCCCOc2nc(ccc2C(F)(F)F)C2=NN=C1O2 (racemic) [Compound 1] | < 6.00 |
| Nc1cc(C(F)(F)F)c2nc1-c1nnc(o1)[C@](O)(C(F)(F)F)CCCCCCO2 [Compound 6] | < 6.00 |
| CC1(C)CCCC[C@](O)(C(F)(F)F)C2=NN=C(O2)c2nc(c(C(F)(F)F)cc2N)OC1 [Compound 61] | > 6.30 |
| [2H]C1CC[C@](O)(C(F)(F)F)C2=NN=C(O2)c2nc(c(C(F)(F)F)cc2N)O[C@H](C)CC1[2H] (stereo partly drawn) [Compound 38] | > 6.30 |
| Nc1cc(C(F)(F)F)c2nc1-c1nnc(o1)C(O)(C(F)(F)F)CCCCc1cccc(c1)O2 (single isomer, unassigned) [Compound 27] | > 6.30 |
| Nc1cc(C(F)(F)F)c2nc1-c1nnc(o1)[C@@](O)(C(F)(F)F)CCCCC[S+]2[O-] (single isomer, unassigned) [Compound 24] | < 6.00 |
| C[C@@H]1COCCC[C@](O)(C(F)(F)F)C2=NN=C(O2)c2nc(c(C(F)(F)F)cc2N)O1 [Compound 59] | < 6.00 |
| Nc1cc(C(F)(F)F)c2nc1-c1nnc(o1)C(O)(C(F)(F)F)CCCCCS2(=O)=O (single isomer, unassigned) [Compound 15] | > 6.30 |
| Nc1cc(C(F)(F)F)c2nc1-c1nnc(o1)[C@@](O)(C(F)(F)F)CCCCCS2 [Compound 22] | > 6.30 |
| CC(C)C1CCCCC[C@](O)(C(F)(F)F)C2=NN=C(O2)c2nc(c(C(F)(F)F)cc2N)O1 (single isomer, unassigned) [Compound 34] | > 6.30 |
| C[C@H]1Oc2nc(c(N)cc2C(F)(F)F)C2=NN=C(O2)[C@@](O)(C(F)(F)F)CCCCC1O (single isomer, unassigned) [Compound 41] | > 6.30 |
| Nc1cc(C(F)(F)F)c2nc1-c1nnc(o1)[C@@](O)(C(F)(F)F)CCCCCC[S@@+]2[O-] [Compound 20] | 6.00 to 6.30 |
| Nc1cc(C(F)(F)F)c2nc1-c1nnc(o1)[C@@](O)(C(F)(F)F)CCCCCC(Cc1ccc(F)cc1)O2 (single isomer, unassigned) [Compound 49] | > 6.30 |
| [2H]C1CC[C@@H](C)Oc2nc(c(N)cc2C(F)(F)F)C2=NN=C(O2)[C@@](O)(C(F)(F)F)CC1[2H] (stereo partly drawn) [Compound 44] | > 6.30 |
| C[C@@H]1CCCCC(O)C(O)(C(F)(F)F)C2=NN=C(O2)c2nc(c(C(F)(F)F)cc2N)O1 (single isomer, unassigned) [Compound 56] | < 6.00 |
| Nc1cc(C(F)(F)F)c2nc1-c1nnc(o1)C(O)(C(F)(F)F)CCCCc1ccccc1O2 (stereo not drawn) [Compound 17] | > 6.30 |
| C[C@H]1CCCCC[C@@](O)(C(F)(F)F)C2=NN=C(O2)c2nc(c(C(F)(F)F)cc2N)O1 [Compound 13] | > 6.30 |
| C[C@@H]1CCCCC(O)C(O)(C(F)(F)F)C2=NN=C(O2)c2nc(c(C(F)(F)F)cc2N)O1 (single isomer, unassigned) [Compound 57] | > 6.30 |
| C[C@@H]1CC(O)CCC[C@](O)(C(F)(F)F)C2=NN=C(O2)c2nc(c(C(F)(F)F)cc2N)O1 (single isomer, unassigned) [Compound 43] | > 6.30 |
| CC(C)(C)c1cccc(CC2CCCCC[C@](O)(C(F)(F)F)C3=NN=C(O3)c3nc(c(C(F)(F)F)cc3N)O2)c1 (single isomer, unassigned) [Compound 51] | > 6.30 |
| Nc1cc(C(F)(F)F)c2nc1-c1nnc(o1)[C@@](O)(C(F)(F)F)CCCCCCS2 [Compound 21] | > 6.30 |
| CC1CCCCCC(O)(C(F)(F)F)C2=NN=C(O2)c2nc(c(C(F)(F)F)cc2N)O1 (stereo not drawn) [Compound 8] | > 6.30 |
